tested on: rhesus monkeys sensitised with haloperidol; test: dyskinesia in rhesus monkeys sensitised with haloperidol; type: in vivo, rhesus monkey; settings: p.o., rhesus monkeys sensitised with haloperidol
assay-metric: Dyskinesia threshold dose p.o. (mg/kg)

1) COc1ccc(Br)c(OC)c1C(=O)NC1CC2CC(O)C(C1)N2Cc1ccc(F)cc1 (stereo not shown) [X = F]
8
2) COc1ccc(Br)c(OC)c1C(=O)NC1CC2CC(O)C(C1)N2Cc1ccc(Cl)cc1 (racemic) [X = Cl]
30
3) COc1ccc(Br)c(OC)c1C(=O)NC1CC2CCC(C1)N2Cc1ccccc1 (stereo not shown) [A, reference compound]
10

Values compiled from patent US5006533A.
